# melting point per record follows

The cases that follow already have their melting point on record.
1) CNS(=O)(=O)Oc1ccc2c(c1)C(C)(C)C(O)O2 (stereo not given)    111 to 112 °C
2) CCOC(=O)c1c(C)cc2nc(CO)n(-c3ccccc3C)c(=O)c2c1C    130 to 132 °C
3) CC(C)(C)NS(=O)(=O)c1ccc2c(c1)C=C(C(=O)O)C(C(F)(F)F)O2 (stereo not given)    229 to 234 °C
4) CCOc1cc(OCc2cccc(OCc3nc(-c4ccccc4)oc3C)c2)ccc1CCC(=O)O    122 to 123 °C
5) CC(C)Oc1cc(N)ccc1-n1cccc1    55 to 57 °C

// query melting point value for entry Cc1ccc(S(=O)(=O)NC(=O)C(c2cc3c(cc2Cl)OCO3)c2cn(C)c3cc(CO)ccc23)cc1 (stereo not given)
207 to 209 °C

// query melting point value for entry COc1cc(C(C)(C)C)c2c(c1)C(C)(C)C(=O)O2
63.5 to 64.5 °C

// query melting point value for entry CC(=O)NC1C(OCc2ccccc2)OC(COCc2ccccc2)C(OCc2ccccc2)C1OCC(O)CO (stereo not given)
165 to 166 °C

// query melting point value for entry O=c1c2cc(Br)ccc2[nH]n1-c1ccccc1F
200 to 205 °C

// query melting point value for entry COC(=O)c1nc(N)sc1CCC(C)C
108 to 110 °C
